Where do the numbers come from? From patent US11459323B2.

Reported C0 is given for each of the following compounds.
test summary: Pharmacokinetic experiment of the compounds in mice
Assay type: in vivo
experimental conditions: mouse, plasma, 2 mg/kg; Male CD-1 mice, fasting, intravenous injection, 2 mpk; read-out: Initial concentration C0
I only need the number, in µM, no unit after it.

Check out these entries, answers already filled in.
smiles: CC1(C)[C@H](NC(=O)/C(=N\OCCOc2ccc3c(c2)CN(C(=N)NCCCN)C3)c2csc(N)n2)C(=O)N1OS(=O)(=O)O
unit abbrev: µM
C0: 18.9

smiles: CC1(C)[C@H](NC(=O)/C(=N\OCCOc2ccc3c(c2)CN(C(=N)N(CCCN)CCCN)C3)c2csc(N)n2)C(=O)N1OS(=O)(=O)O
unit abbrev: µM
C0: 17

smiles: CC1(C)[C@H](NC(=O)/C(=N\O[C@@H](COc2ccc3c(c2)CN(C(=N)N(CCCN)CCCN)C3)C(=O)O)c2csc(N)n2)C(=O)N1OS(=O)(=O)O
unit abbrev: µM
C0: 11.3

Kindly consider the entry below.
Would you kindly share the measured C0 for CC1(C)[C@H](NC(=O)/C(=N\O[C@@H](COc2ccc3c(c2)CN(C(=N)NCCCN)C3)C(=O)O)c2csc(N)n2)C(=O)N1OS(=O)(=O)O ?
14.4

----------
MIC listing for selected molecules.
Tested on: Pseudomonas aeruginosa C755
test summary: MIC on clinically isolated bacteria
Format: cell-based
experimental conditions: read-out: MIC

# example entries with known answers
molecule: C[C@H]1[C@H](NC(=O)/C(=N\OC(C)(C)C(=O)O)c2csc(N)n2)C(=O)N1S(=O)(=O)O [Aztreonam, reference compound]
experimental endpoint: MIC
result value: 4 µg/mL

molecule: CC1(C)[C@H](NC(=O)/C(=N\O[C@@H](COc2ccc3c(c2)CN(C(=N)N(CCN)CCN)C3)C(=O)O)c2csc(N)n2)C(=O)N1OS(=O)(=O)O
experimental endpoint: MIC
result value: 4 µg/mL

Turning to the following molecule.
Record request: MIC value, item C[C@@H](O)[C@H]1C(=O)N2C(C(=O)O)=C(S[C@@H]3CN[C@H](C(=O)N(C)C)C3)[C@H](C)[C@H]12 [Meropenem, reference compound]
< 0.25 µg/mL

----------
Test system: Pseudomonas aeruginosa W32
test summary: MIC on clinically isolated bacteria
Assay type: cell-based
experimental conditions: read-out: MIC
Readings of MIC for the listed compounds
Report as a plain number; the unit µg/mL is understood.

compound: CC1(C)[C@H](NC(=O)/C(=N\O[C@@H](COc2ccc3c(c2)CN(C(=N)NCCCCN)C3)C(=O)O)c2csc(N)n2)C(=O)N1OS(=O)(=O)O [Compound 36]
MIC (µg/mL): 1

compound: CC1(C)[C@H](NC(=O)/C(=N\O[C@@H](COc2ccc3c(c2)CN(C(=N)N[C@@H]2CCCNC2)C3)C(=O)O)c2csc(N)n2)C(=O)N1OS(=O)(=O)O [Compound 41]
MIC (µg/mL): 4

For the record CC1(C)[C@H](NC(=O)/C(=N\O[C@@H](COc2ccc3c(c2)CN(C(=N)NCCN)C3)C(=O)O)c2csc(N)n2)C(=O)N1OS(=O)(=O)O [Compound 44] , what value of MIC is listed for Pseudomonas aeruginosa W32?
2

----------
Listed below: MIC values for each entry.
Test system: Pseudomonas aeruginosa W24
test summary: MIC on clinically isolated bacteria
Format: cell-based
experimental conditions: read-out: MIC
Hi, when you answer, please include the unit after the number. Thanks!

// worked examples, MIC included
compound: CC1(C)[C@H](NC(=O)/C(=N\O[C@@H](COc2ccc3c(c2)CN(C(=N)N(CCN)CCN)C3)C(=O)O)c2csc(N)n2)C(=O)N1OS(=O)(=O)O
test target: Pseudomonas aeruginosa W24
result value: 16 µg/mL
--
compound: C[C@H]1[C@H](NC(=O)/C(=N\OC(C)(C)C(=O)O)c2csc(N)n2)C(=O)N1S(=O)(=O)O [Aztreonam, reference compound]
test target: Pseudomonas aeruginosa W24
result value: 32 µg/mL
--
compound: CC1(C)[C@H](NC(=O)/C(=N\O[C@@H](COc2ccc3c(c2)CN(/C(=N\[C@@H]2CCCNC2)N[C@@H]2CCCNC2)C3)C(=O)O)c2csc(N)n2)C(=O)N1OS(=O)(=O)O
test target: Pseudomonas aeruginosa W24
result value: 1 µg/mL
--
compound: CC1(C)[C@H](NC(=O)/C(=N\O[C@@H](COc2ccc3c(c2)CN(C(=N)NCCN)C3)C(=O)O)c2csc(N)n2)C(=O)N1OS(=O)(=O)O
test target: Pseudomonas aeruginosa W24
result value: 2 µg/mL

Quick one: MIC of CC1(C)[C@H](NC(=O)/C(=N\O[C@@H](COc2ccc3c(c2)CN(C(=N)NCCCCN)C3)C(=O)O)c2csc(N)n2)C(=O)N1OS(=O)(=O)O ?
0.5 µg/mL
